Values were extracted from ChEMBL document CHEMBL3853268.

- experiment-notes: Cytotoxicity against human SH-SY5Y cells assessed as decrease in cell viability after 24 hrs by MTT assay
- Format: toxicity, cell-based
- conditions-used: sh-sy5y
assay-endpoint: IC50

> print(dat)
                     smiles.string  assay.endpoint    result
1  C/C(=N\NC(N)=S)c1cc2ccccc2oc1=O            IC50  ≤ 185 µM
